# METHOD SUMMARY: Equilibrium binding to DMPC small unilamellar vesicles (fluorescence anisotropy titration)
# ASSAY SETUP: PBS buffer at PH 7.4 and 37° C.
METRIC NAME: KDMPC overall association constant (M⁻¹)

INSERT INTO results (molecule, units_symbol, measured) VALUES
  ('CCCCc1c2c(nc3ccc(O)cc13)-c1cc3c(c(=O)n1C2)COC(=O)C3(O)CC (stereo not drawn) [7-butyl-10-hydroxycamptothecin]', 'M⁻¹', 2100),
  ('CC[C@@]1(O)C(=O)OCc2c1cc1n(c2=O)Cc2cc3ccccc3nc2-1 [CPT, (20S)-Camptothecin, reference compound]', 'M⁻¹', 100),
  ('CCc1c2c(nc3ccc(OC)cc13)-c1cc3c(c(=O)n1C2)COC(=O)C3(O)CC (stereo not drawn) [7-ethyl-10-methoxycamptothecin]', 'M⁻¹', 340),
  ('CC[C@@]1(O)C(=O)OCc2c1cc1n(c2=O)Cc2c-1nc1ccc(O)cc1c2CC[Si](C)(C)C [DB-174]', 'M⁻¹', 9000),
  ('CC[C@@]1(O)C(=O)OCc2c1cc1n(c2=O)Cc2c-1nc1ccccc1c2C [7-methyl-20(S)-camptothecin]', 'M⁻¹', 150),
  ('CCCc1c2c(nc3ccc(OC)cc13)-c1cc3c(c(=O)n1C2)COC(=O)C3(O)CC (stereo not drawn) [7-propyl-10-methoxycamptothecin]', 'M⁻¹', 440),
  ('CCCc1c2c(nc3ccccc13)-c1cc3c(c(=O)n1C2)COC(=O)[C@]3(O)CC [7-propyl-20(S)-camptothecin]', 'M⁻¹', 540),
  ('CCC1(O)C(=O)OCc2c1cc1n(c2=O)Cc2c-1nc1ccc(O)cc1c2C (stereo not drawn) [7-methyl-10-hydroxycamptothecin]', 'M⁻¹', 220),
  ('CCC1(O)C(=O)OCc2c1cc1n(c2=O)Cc2c-1nc1ccc(N)cc1c2[Si](C)(C)C (stereo in doubt) [Example 8]', 'M⁻¹', 820);
